Reference source: the supplement of paper PMC12764529

- TEST_PROTOCOL: folding stability dG unfold from chymotrypsin proteolysis; higher = more stable
Label scheme for folding stability dG unfold: lower than 1 kcal/mol is no, 1 kcal/mol and above is yes.

Tell me whether folding stability dG unfold is at least 1 kcal/mol here: SKKVTLPIYFPETGEVVTIDLDELAKALGVDPDKLTLTVVSSGKGRVYRIEVFKDGIRIEEIGDVPPELLSA [r9_819_TrMRF]
yes

Next up: SAGGSAGGSAMVITKTTASVEEVKEEIKKEYPNANVKITKVSTSADGKTTYKIEIKIPKNNKSAGGSAGGSA [r18_464_JUSTAS]
yes

Next up: SAGGSAGGSAGGWDVEIEPFPDGFIFITAEGPNGRKLVIVVMVVPEGKLMYMIVPLDDLSAGGSAGGSAGGS [r10_140_TrROS]
yes

Next up: SAGGSAGGSAGNIILPFEIESIDIEEETAIDPETGEPVKVKKILIRLKGTGKIIEISFTEKSAGGSAGGSAG [r3_424_TrMRF]
yes

Next up: SAMTVVIPPNLTALTEDGRPIHPDQVVEVYEAEAFPELGRVVARVKVFDPVSGEETEERLVLFFPDGAESAG [r14_258_TrMRF]
yes

Next up: SAATLPPGTKVLTLTVTVRVPPGVSVEDLAAALAAELRRRLGPGAKITVTVTYDPETDTLTVTVTVVLPPSA [r9_657_TrROS_Hall]
yes

Next up: SAGGSAGGSAGGSGMTSTTYRLPEGNVVLVETFDPATGTVTLEIRGPPSVERTLTLPVASAGGSAGGSAGGS [r4_443_JUSTAS]
yes

Next up: SAPPNHRMVMYEIPIPPGMEIGDEIKLKIKVPGKEYPIKIDRIPNLPPGMRVRIMFNLDNGQFMIQILPSAG [r14_554_TrROS]
yes

Next up: SAGGNWRIVEIPIKFPPGQDLTTIAKEIAKELLPPGEDVSINVEQRPNYMRIYIFYPEDGKPLWEIEISAGG [r13_724_TrROS]
yes

Next up: PPTSPEFRKALENIKKVDIEIEPYPNDGMVRMSIELKFPDKPVEIDIHYQYDPDGKINGMWARLDGKWIPIS [r1_274_TrROS]
yes

Next up: SAGGMTPAVTETTIELPASDPEAAIAALRAAGWELLARERGPDGSVRMVFAAPTRRVTVDFVGPAAASAGGS [r16_170_JUSTAS]
yes

Next up: SAGGSAGGSAGMEITRDKTPDGVWTVTITVPRPDGPSITVTVTGSPDGDFAPEKIAAVLASAGGSAGGSAGG [r11_759_JUSTAS]
no

Next up: KMEIKIEVEKVKDEETGEEYIEVKIVVKKENVEEALEKVKKILEEEFNYEIVDVKVEKKDDYVVITVKIRLS [r1_337_TrROS_Hall]
yes

Next up: SAGGSAGGSAGGVLYLPDDVKVELVEVTPDGVAKLRVYVYEKDDGDPLVPVPGYDPGAGSAGGSAGGSAGGS [r10_934_TrMRF]
no

Next up: SAGGSAGGSAGEEVLTLTFPVPPDAPPPGLEAIRESLPGLEDVELDAEELPDGTVRVVLSSAGGSAGGSAGG [r17_205_TrMRF]
no

Next up: SAGGSAGGSDTIVVTLPDGTKITYDKENNEVYVYNLKTKKKIKFPKNMSLEEVLKAIKKLKKPSAGGSAGGS [r12_832_TrROS_Hall]
yes

Next up: SAMKETEIPDPVTGNTYTVIDFDDATVVIKNYPDSLTITIIPPPSNTSTTIPMKPGEEEKVLKELGIPPSAG [r14_4_JUSTAS]
no

Next up: SAGVTLKLPFVLPGGLGVDEIEVRSLPGGRVEARLRLKGDPRYYVVARFYVLPGGRLVITDVRVRREDESAG [r14_705_TrMRF]
yes

Next up: SAGGSAGGSAGGRPIPLDEFRDMPPNWKIEFNNGKEVEIPADDIKKPIDKGDTVRIEPVPSAGGSAGGSAGG [r7_643_TrROS]
no

Next up: SAGNAKEIAKKIKIRIREFFAERFGFPDVEIDSVTIKDVDPKNGRVRVNITWWWPNGRPWKHEIEIPVDSAG [r5_20_TrROS]
yes

Next up: SAGGSAKLRVAEADFVPGALLEAIEELEKAPAGAEVEVRPGDPLEPKERPVRFVVNEKGELLEVVGSAGGSA [r15_228_TrMRF]
no

Next up: SAGGSAGGSAGGSADKNGYVKIPITVFTMERYGNGQPKMETVKVEIYVPPGESIEDLLQSAGGSAGGSAGGS [r4_283_TrROS]
no

Next up: SGMSMAKDAKPIYIEYRDPNGKSYRVTEVKVNEDGTLTITIEYPDSIKTYTLPPNANYPLSSSLILSTVESA [r9_993_JUSTAS]
yes

Next up: KTYTIDEIAEKLGMSKEELKNMSAEEIKEALKKLLPPEEIEKVEISYNEKDKKVTITVTLKNGEKVEITIDS [r1_340_TrROS_Hall]
yes
